// reported TGI for each item listed
# Test system: SN12C renal
# Assay Protocol: NCI tumour cell line growth inhibition, 48 h
Measured Quantity: TGI

INSERT INTO assay_data (compound, value) VALUES
  ('Nc1nc2c(s1)CCc1c-2c(Br)n(Cc2ccccc2)c1Br', '31.2 µM'),
  ('Cc1nnc2sc(NN)nn12', '> 100 µM'),
  ('C/C(=C\CCc1ccoc1)CC/C=C(\C)CCCN1CCOCC1', '21 µM'),
  ('COc1ccc2c(CN3CCC(C(=O)O)CC3)cc3cc4c(cc3c2c1)OCO4', '4.08 µM'),
  ('Cc1ccc(-c2cc(C(F)(F)F)nn2-c2ccc(S(N)(=O)=O)cc2)cc1', '42.1 µM'),
  ('CCN1C(=O)N(CC)C2Nn3c(s/c(=C\c4ccccc4Br)c3=O)=NC21 (stereo unspecified)', '27.8 µM');

----------
// reported TGI for each item listed
# Tested on: RXF 393 renal
# Assay Protocol: NCI tumour cell line growth inhibition, 48 h
Measured Quantity: TGI

INSERT INTO assay_data (compound, measured_quantity, value) VALUES
  ('C=C[C@@H]1C[C@]2(C(=O)OC)Cc3nc4ccccc4nc3CC(C(=O)OC)=C2O1', 'TGI', '> 100 µM'),
  ('CC1C[C@H](C)CC(C(O)CC2CC(=O)N(Cc3ccccc3)C(=O)C2)C1O (some centres not stated)', 'TGI', '> 100 µM'),
  ('CCCCCCCCCCCCCC1=NCCN1CCO', 'TGI', '7.43 µM'),
  ('Cc1ccc(C(SCC(N)C(=O)O)(c2ccc(C)cc2)c2ccc(C)cc2)cc1 (configuration not stated)', 'TGI', '14.8 µM'),
  ('CC(C)(C)OC(=O)NCCc1cccc2c1oc1c(CCC(=O)O)cccc12', 'TGI', '> 100 µM'),
  ('O=C(c1ccccc1)c1ccc(-n2c3ccccc3c3ccc4c(c32)C(=O)C=CC4=O)cc1', 'TGI', '19.2 µM'),
  ('Cc1ccc(-c2cc3c(SCC(=O)Nc4cc(C(F)(F)F)ccc4Cl)nccn3n2)cc1', 'TGI', '> 100 µM');

----------
# Tested on: NCI-H522 lung
# Assay Protocol: NCI tumour cell line growth inhibition, 48 h; in the data active = GI50 below about 0.43 µM; inactive = the rest
Classes used: 1 (active), 0 (inactive)

INSERT INTO measurements (molecule, classification) VALUES
  ('COc1ccc2c(c1)[nH]c(=O)c1c3cc(OC)ccc3cn21', 1),
  ('Cn1cc(C2=C(c3cn(C)c4c([N+](=O)[O-])cccc34)C(=O)NC2=O)c2ccccc21', 0),
  ('CCOC(=O)n1cc(C2=C(c3cn(C)c4ccccc34)COC2=O)c2ccccc21', 1),
  ('COc1ccc2cc(-c3cc4c(oc3=O)-c3ccccc3OC4O)c(=O)oc2c1 (stereo unspecified)', 0),
  ('Nc1nc2c(s1)CCc1c-2c(Br)n(Cc2ccccc2)c1Br', 0),
  ('CC1(C)CCC2=C(O1)c1ccccc1C(=O)C2=O', 0),
  ('C/C(=C\CCc1ccoc1)CC/C=C(\C)CCCN1CCOCC1', 0),
  ('CN(Cc1cc(Br)cc(Br)c1O)Cc1cc(Br)cc(Br)c1O', 0),
  ('C[C@H](Nc1ncnc2nc[nH]c12)c1cc2ccc(F)cc2nc1-c1ccccn1', 0),
  ('Oc1ccc(O)c(-c2cn3ccsc3n2)c1', 0),
  ('O=C1NC(=O)C(=C/C=C/c2ccccc2)C(=O)N1', 0);

----------
// reported TGI for each item listed
# System: 786-0 renal
# Assay Protocol: NCI tumour cell line growth inhibition, 48 h
Measured Quantity: TGI

INSERT INTO measurements (molecule, measured_quantity, value) VALUES
  ('NNC(=O)CNC(=O)c1ccc(Cl)cc1Cl', 'TGI', '> 100 µM'),
  ('O=C1C(=O)c2c(nc3ccc(Br)cn23)-c2ccccc21', 'TGI', '3.36 µM'),
  ('CC(C)NC(=O)OCc1c(COC(=O)NC(C)C)c(-c2cc[n+](COC(=O)C(C)(C)C)cc2)n2c1CCC2', 'TGI', '> 100 µM'),
  ('CC(=O)c1cc(C(=O)c2ccc3c(c2)Sc2ccccc2N3)c2c(C)cc(C)cn12', 'TGI', '> 21.5 µM'),
  ('CN(Cc1cc(Br)cc(Br)c1O)Cc1cc(Br)cc(Br)c1O', 'TGI', '14.6 µM'),
  ('O=C1c2nsnc2C(=O)c2c(F)c(F)c(F)c(F)c21', 'TGI', '3.01 µM'),
  ('COC(=O)/C=C(\C(=O)OC)c1c2c3c(cc(OC)c(OC)c3c3ccccc13)CCN2C', 'TGI', '> 100 µM'),
  ('COc1ccc2c(c1)[nH]c(=O)c1c3cc(OC)ccc3cn21', 'TGI', '1.56 µM'),
  ('Nc1cc(N2CCCC2)nc(=O)n1-c1ccccc1', 'TGI', '> 100 µM'),
  ('COc1ccc(C2CC(c3cc(C)ccc3O)=NC(N)=N2)cc1 (stereo unspecified)', 'TGI', '> 100 µM'),
  ('C=CC(C1=CC(=O)C(OC)=CC1=O)c1ccccc1 (stereo unspecified)', 'TGI', '28.4 µM'),
  ('Nc1nc(OCc2cc(Br)cs2)c2[nH]cnc2n1', 'TGI', '> 100 µM'),
  ('CCCCC(Sc1cc(Cl)c(C)cc1S(=O)(=O)Nc1n[nH]c(N)n1)C(=O)OC (stereo unspecified)', 'TGI', '> 10 µM'),
  ('CCOC(=O)c1c(C)n2c(=O)cc(C)c3c(O)c(O)cc1c32', 'TGI', '> 100 µM'),
  ('CN(N)c1cc(=O)[nH]c(=O)[nH]1', 'TGI', '> 100 µM'),
  ('COC1C=COC2(C)Oc3c(C)c(O)c4c(O)c(c(/C=N/N5CCN(N)CC5)c(O)c4c3C2=O)NC(=O)C(C)=CC=CC(C)C(O)C(C)C(O)C(C)C(OC(C)=O)C1C (stereo unspecified)', 'TGI', '> 100 µM'),
  ('CC(=O)O[C@H]1/C(=C/c2ccncc2)C[C@H]2[C@@H]3CC=C4C[C@@H](N5CCCC5)CC[C@]4(C)[C@H]3CC[C@]12C', 'TGI', '10.3 µM'),
  ('Cc1nc2c(=O)n(-c3ccccc3)c3ccccc3c2o1', 'TGI', '> 100 µM'),
  ('CNCc1cc(OC)ccc1-c1ccc(OC)c(OC)c1OC', 'TGI', '> 100 µM'),
  ('C[C@H](Nc1ncnc2nc[nH]c12)c1cc2ccc(F)cc2nc1-c1ccccn1', 'TGI', '> 100 µM'),
  ('CC(=O)Nc1ccc(-c2nc3ccccc3s2)cc1I', 'TGI', '44.5 µM');

----------
# Tested on: DU-145 prostate
# Assay Protocol: NCI tumour cell line growth inhibition, 48 h
Measured Quantity: TGI

INSERT INTO measurements (compound, value) VALUES
  ('CCN1C(=O)C(C)S/C1=N\NC(=O)CSc1nc2ccccc2c(=O)n1CC (stereo not given)', '> 100 µM'),
  ('CNC(=O)N(CCC#N)CCCN(C(=O)NC)c1ccccc1', '> 100 µM'),
  ('CC1=CC[C@@]2(CO)[C@@H]([C@@H]1C)[C@H]1CC[C@@H]3[C@@]4(C)CC[C@H](O)C(C)(C)[C@@H]4CC[C@@]3(C)[C@]1(C)C[C@@H]2O', '> 100 µM'),
  ('CCN(CC)c1ccc2cc(C(=O)Nc3ccccc3)c(=N)oc2c1', '> 100 µM'),
  ('Cc1ccc(N=Nc2ccc(O)c(CN(C)C)c2)cc1', '47.3 µM'),
  ('CC1COc2c(N3CCN(C)CC3)c(F)cc3c(=O)c(C(=O)O)cn1c23 (stereo not given)', '> 100 µM'),
  ('O=CNc1ncn[nH]1', '> 100 µM'),
  ('COc1cc(C2C(C#N)=C(N)OC3=C2CCS(=O)(=O)c2ccc(C)cc23)cc(OC)c1OC (stereo not given)', '> 100 µM'),
  ('Cl.Fc1c[c-]c(-c2ccccn2)c(F)c1.[Pt].c1ccc(P(c2ccccc2)C([PH+](c2ccccc2)c2ccccc2)[PH+](c2ccccc2)c2ccccc2)cc1', '20.1 µM'),
  ('O=C(N=Nc1cccc(Cl)c1)NNc1cccc(Cl)c1', '41.8 µM');

----------
// reported TGI for each item listed
# Tested on: CCRF-CEM leukemia
# Assay Protocol: NCI tumour cell line growth inhibition, 48 h
Measured Quantity: TGI

INSERT INTO results (molecule, system, value) VALUES
  ('O=P1(Oc2ccccc2)N(CCCl)CCN1c1ccccc1 (stereo unspecified)', 'CCRF-CEM leukemia', '> 100 µM'),
  ('c1ccc(-n2nc3ccc4nonc4c3n2)cc1', 'CCRF-CEM leukemia', '> 100 µM'),
  ('CC(=O)OC1CCCn2c1nc1c2C(=O)C(C)=C(N2CC2)C1=O (stereo unspecified)', 'CCRF-CEM leukemia', '59 µM'),
  ('COC(=O)C(CC(C)C)NC(=O)NC12CC3CC(CC(F)(C3)C1)C2 (stereo unspecified)', 'CCRF-CEM leukemia', '> 100 µM'),
  ('COC(=O)/C=C1/CCC(C)(C(=O)NS(=O)(=O)c2ccc(C)cc2)C1(C)C (stereo unspecified)', 'CCRF-CEM leukemia', '> 100 µM'),
  ('CCOC(=O)CSc1nnc2cc(CN3CCCC3)c(-c3ccc(Cl)cc3)nn12', 'CCRF-CEM leukemia', '> 100 µM');
